B1: VH:VL chains; a variant is named by its letters at X, in order (parent)
chain 1: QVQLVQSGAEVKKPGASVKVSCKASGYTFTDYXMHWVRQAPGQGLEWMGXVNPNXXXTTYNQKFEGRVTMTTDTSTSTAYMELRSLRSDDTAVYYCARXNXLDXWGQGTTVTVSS
chain 2: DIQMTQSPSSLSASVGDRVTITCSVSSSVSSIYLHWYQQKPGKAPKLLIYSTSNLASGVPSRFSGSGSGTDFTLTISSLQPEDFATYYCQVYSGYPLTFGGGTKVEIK

Variants of: B1
Test: yeast display scFab, FACS + sequencing
Conditions: with MET
The list shows a part of the results. How many sequences the whole screen found active is unknown.
Property Label: antigen binding call

Check out these entries, answers already filled in.
YRRGGAAS    binds
YTRGASLD    no binding
DRAGDAVS    no binding
YRGANSVF    binds
YTKETAAD    no binding
VKGEGDVY    no binding

Suppose we examine the variant YRGRDASF ; what antigen binding call value has been reported?
binds

Same question, YGKRDASY this time
no binding

Same question, VKGRADWF this time
no binding

Same question, VKEGGDVA this time
no binding

Same question, YAKRGSWA this time
no binding

Same question, YRGRDDWF this time
no binding

Same question, YRAKGSLA this time
binds

Same question, AETKGDGV this time
no binding

Same question, YRGRTAAD this time
binds

Same question, YRGKAAGV this time
binds

Same question, DEKGGSSA this time
no binding

Same question, VKARGSGA this time
binds

Same question, VKARGSVA this time
binds
